System: lung (NCI-H23)
Experiment: Cell cytotoxicity assay (MTT), NCI-H23
Format: cell-based, human
Conditions: read-out: Cell Line IC50 NCI-H23
Result type: IC50 (µM)
One number for each entry, in µM.

[Q] Returns the measured IC50 for the input molecule. Input: CC(=O)Oc1ccc(C2=Cc3cc(C4c5ccc(OC(C)=O)cc5OCC4c4ccc(OC(C)=O)cc4)c(OC(C)=O)cc3OC2)cc1 (stereo not shown) [Structure 2]
[A] 7.3

###

Biological target: recombinant human estrogen receptor beta (ER-β) (Homo sapiens)
Sequence (Q92731 whole entry): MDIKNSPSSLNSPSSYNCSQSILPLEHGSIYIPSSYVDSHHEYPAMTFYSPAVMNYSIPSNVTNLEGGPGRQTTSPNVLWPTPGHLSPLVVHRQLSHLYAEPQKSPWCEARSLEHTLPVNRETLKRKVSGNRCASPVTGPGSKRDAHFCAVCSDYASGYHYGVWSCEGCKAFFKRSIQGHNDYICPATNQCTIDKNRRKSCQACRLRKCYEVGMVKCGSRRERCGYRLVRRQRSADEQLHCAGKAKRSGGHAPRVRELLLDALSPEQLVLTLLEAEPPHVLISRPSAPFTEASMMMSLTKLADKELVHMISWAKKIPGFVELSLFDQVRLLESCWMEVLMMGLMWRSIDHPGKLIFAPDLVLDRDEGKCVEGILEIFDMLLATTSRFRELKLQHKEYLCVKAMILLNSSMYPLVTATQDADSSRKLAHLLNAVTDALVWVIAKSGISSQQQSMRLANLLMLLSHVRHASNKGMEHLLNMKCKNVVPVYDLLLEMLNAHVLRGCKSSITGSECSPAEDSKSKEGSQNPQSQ
Assay: Estrogen receptor competitive binding assay (fluorescence polarization kit), ER-β
Settings: read-out: concentration required to displace 50% of bound fluorescent estrogen ligand (EC50), ER-beta
Result type: EC50 (nM)
Answers are plain numbers, in nM.

[Q] Returns the measured EC50 for the input molecule. Input: Oc1ccc(C2=Cc3cc(C4c5ccc(O)cc5OCC4c4ccc(O)cc4)c(O)cc3OC2)cc1 (stereo not shown) [Structure 3]
[A] 370
